Reference source for all entries: a collection of fitness landscapes (doi:10.1126/science.1257360)

B1: PhoQ; a variant is named by its letters at X, in order, P23837 (parent)
chain: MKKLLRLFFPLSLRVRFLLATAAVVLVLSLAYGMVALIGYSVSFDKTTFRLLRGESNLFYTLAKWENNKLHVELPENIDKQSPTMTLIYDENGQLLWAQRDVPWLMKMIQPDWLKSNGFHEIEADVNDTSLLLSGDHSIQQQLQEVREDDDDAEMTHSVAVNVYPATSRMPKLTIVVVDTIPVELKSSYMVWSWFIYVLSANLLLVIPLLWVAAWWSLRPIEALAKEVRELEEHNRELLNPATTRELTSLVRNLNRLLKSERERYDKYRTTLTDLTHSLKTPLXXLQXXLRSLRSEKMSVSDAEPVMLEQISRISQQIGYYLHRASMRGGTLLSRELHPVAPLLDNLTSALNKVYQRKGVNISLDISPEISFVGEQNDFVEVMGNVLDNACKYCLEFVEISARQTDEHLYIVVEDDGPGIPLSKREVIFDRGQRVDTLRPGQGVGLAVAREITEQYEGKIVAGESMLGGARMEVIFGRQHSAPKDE

variants of: B1; experiment: enrichment ratio after two sorts for PhoP signalling (ratio (wild type AVST 3.29)); higher = more functional; settings: with PhoP (E. coli)
In all, about 140,000 sequences were measured (“enrichment ratio after two sorts for PhoP signalling”: median about 0, highest 2% from about 11 on). For the sample, the highest values were picked, then their nearest neighbours and some sequences at random.
# reported enrichment ratio; entries follow
measure name: enrichment ratio

| mutation descriptor | measured value |
| --- | --- |
| SRNN | ≤ 0.25 |
| THMM | 17.6 |
| NASE | ≤ 0.25 |
| SNMN | 22.4 |
| EHMI | ≤ 0.25 |
| SPVN | ≤ 0.25 |
| QCLF | ≤ 0.25 |
| SLSE | 1.48 |
| LGGY | ≤ 0.25 |
| KYLF | ≤ 0.25 |
| SAVR | ≤ 0.25 |
| ETLP | ≤ 0.25 |
| IQCL | ≤ 0.25 |
| DDAA | ≤ 0.25 |
| ADAC | 0.792 |
| AQVH | 7.73 |
| KASE | ≤ 0.25 |
| SQKE | ≤ 0.25 |
| QFFS | ≤ 0.25 |
| NESE | ≤ 0.25 |
| GQND | ≤ 0.25 |
| HDVL | ≤ 0.25 |
| RISE | ≤ 0.25 |
| SCKK | ≤ 0.25 |
| KMLV | ≤ 0.25 |
| FSMM | 4.33 |
| TTCC | 11.5 |
| TQCC | 65 |
| SMIS | ≤ 0.25 |
| YIRN | ≤ 0.25 |
| ITCC | ≤ 0.25 |
| TASE | 11.3 |
| SNQN | ≤ 0.25 |
| QQHA | ≤ 0.25 |
| ANRC | ≤ 0.25 |
| SHMM | 2.18 |
| QPMM | ≤ 0.25 |
| GCLF | 13.2 |
| DHMC | ≤ 0.25 |
| MEND | ≤ 0.25 |
| QMHG | 13 |
| AISE | 2.44 |
| QESE | ≤ 0.25 |
| SCDN | ≤ 0.25 |
| FQLF | 6.28 |
| YETW | ≤ 0.25 |
| STCC | 13.7 |
| TIAC | 12.1 |
| ACNM | ≤ 0.25 |
| TKLF | 18 |
| AQLF | 15.8 |
| YAAS | ≤ 0.25 |
| YHMM | ≤ 0.25 |
| NQCL | ≤ 0.25 |
| EDDL | ≤ 0.25 |
| TNKH | ≤ 0.25 |
| SLNN | ≤ 0.25 |
| RIAC | ≤ 0.25 |
| MTMM | 59.5 |
| TCES | ≤ 0.25 |
| GHLA | ≤ 0.25 |
| TESE | 20 |
| MMMM | ≤ 0.25 |
| SAVI | 3.04 |
| FVLT | ≤ 0.25 |
| SNNN | 16.8 |
| PFYL | ≤ 0.25 |
| YTCC | ≤ 0.25 |
| NDAA | ≤ 0.25 |
| GSWF | ≤ 0.25 |
| DDSE | 1.96 |
| AKLF | 7.81 |
| STLF | 14.6 |
| HEMN | ≤ 0.25 |
| FTMM | 12.1 |
| HKLF | ≤ 0.25 |
| ACVM | 12.1 |
| GTCC | ≤ 0.25 |
| SNVN | 13.3 |
| CTCC | ≤ 0.25 |
| TISE | 24.4 |
| WIMM | ≤ 0.25 |
| TDNN | 33.6 |
| FYWW | ≤ 0.25 |
| CFLG | ≤ 0.25 |
| KPPV | ≤ 0.25 |
| SQAN | 6.83 |
| AAAC | ≤ 0.25 |
| ELIY | ≤ 0.25 |
| ACPM | 0.39 |
| PEFN | ≤ 0.25 |
